measurement-target: T1, mouse common cytokine receptor γ-chain (IL-2Rγ) (mouse, UniProt P34902 23-263, limits assumed)
T1 construct: Recombinant mouse IL-2Rγ protein; also called mo IL-2R; mouse IL-2R gamma
T1 sequence (looked up): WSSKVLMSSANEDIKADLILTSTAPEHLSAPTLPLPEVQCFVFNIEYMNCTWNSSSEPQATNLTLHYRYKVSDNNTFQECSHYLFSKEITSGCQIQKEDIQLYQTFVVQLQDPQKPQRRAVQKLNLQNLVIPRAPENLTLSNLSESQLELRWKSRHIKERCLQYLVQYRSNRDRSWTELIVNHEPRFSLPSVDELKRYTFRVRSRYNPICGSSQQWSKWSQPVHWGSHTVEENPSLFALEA
assay-comment: P.E. off-rate SPR
readout: koff (s⁻¹)
# output: bare number, implied unit s⁻¹

Study these solved cases before continuing.
FJ1427_P035MP07D01 (VHH, tested as periplasmic extract; also called Clone nr; 580) VHH: QVQLVESGGGLVQAGGSLRLSCAASGRTLSRYAMGWFRQAPGKEREFVAANSWGGDTYYTDSVEGRFTFSRDNAKNAVYLQMNSLQPGDTAVYYCAAAPTSFATTAYSSSNSYSYWGQGTQVTVSS	0.113
FJ1427_P035MP07B10 (VHH, tested as periplasmic extract; also called Clone nr; 650) VHH: QVQLVESGGGLVQAGGSLRLSCAASGRTLSRYAMGWFRQAPGKEREFVAADSWGGDTFYADSVEGRFTFSRDNAKNAAYLQMNSLQPEDTATYYCAGAPTSFATTAYSSSNSYRYWGQGTQVTVSS	0.0501

query: // returns reported koff for input FJ1427_P035MP07C06 (VHH, tested as periplasmic extract; also called Clone nr) VHH: QVQLVESGGGLVQAGGSLRLSCAASGRTLSRYAMGWFRQAPGKEREFVTANSWGGDTYYADSVQGRFTFSRDNAENTVYLQMNSLQPEDTAVYYCAAAPTSFATTAYSSSNSYAYWGQGTQVTVSS
result: 0.111

query: Field request: koff | item: FJ1427_P035MP07A06 (VHH, tested as periplasmic extract; also called Clone nr) VHH: QVQLVESGGGLVQPGGSLRLSCAASGRTLSRYAMGWFRQAPGKEREFVTANSWGGDTYYADSVQGRFTFSRDNAKNTVYLQMNSLQPEDTAVYYCAAAPTSFATTAYSSSNSYAYWGQGTQVTVSS
result: 0.109

query: Item under review: FJ1427_P035MP07D10 (VHH, tested as periplasmic extract; also called Clone nr) VHH: QVQLVESGGGLVQAGGSLRLSCAASGRTLSRYAMGWFRQAPGKEREFVAADSWGGDTYYDDSVEGRFTFSRDIAKNAVYLQMNSLQPEDTAVYYCAAAPTSFATTAYSSSNSYAYWGQGTQVTVSS . Reported koff?
result: 0.125

query: Which koff value belongs to FJ1427_P035MP07B09 (VHH, tested as periplasmic extract; also called Clone nr) VHH: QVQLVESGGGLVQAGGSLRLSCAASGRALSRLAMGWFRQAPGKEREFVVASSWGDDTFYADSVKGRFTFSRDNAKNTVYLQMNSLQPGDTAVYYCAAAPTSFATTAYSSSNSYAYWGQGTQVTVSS ?
result: 0.0127

query: Value lookup for koff; key = FJ1427_P035MP07D08 (VHH, tested as periplasmic extract; also called Clone nr) VHH: QLQLVESGGGLVQAGGSLRLSCAASGRTLSRYAMGWFRQAPGKEREFVTANSWGGDTYYADSVQGRFTFSRDNAKNTVYLQMNSLQPEDTAVYYCAAAPTSFATTAYSSSNSYAYWGQGTQVTVSS
result: 0.0991

query: For the binder shown here, FJ1427_P035MP07B11 (VHH, tested as periplasmic extract; also called Clone nr) VHH: QVQLVESGGGLVQAGGSLRLSCAASGRALSRLAMGWFRQAPGKEREFVVASSWGDDTFYADSVEGRFTFSRDNAKSTVYLQMNSLQPGDTAVYYCAAAPTSFATTAYSSSNSYAYWGQGTQVTVPS , give the reported koff.
result: 0.0114

From: patent US20240409645A1
